System: Jurkat
Test: Inhibition of TNFalpha expression in human Jurkat cells containing GFP gene under control of TNF gene promoter at 10 uM incubated for 24 hrs
Assay type: functional
The source made the active and inactive calls. No cut-off for these calls is given here.
Outcome codes: active, inactive

1) O=C(N/N=C\c1ccc(Cl)cc1)[C@H](Cc1ccccc1)N1C(=O)c2ccccc2C1=O : active
2) O=C(N/N=C\c1ccc(Cl)c(Cl)c1)[C@H](Cc1ccccc1)N1C(=O)c2ccccc2C1=O : active
3) CC[C@H](C)[C@@H](C(=O)N/N=C\c1ccccc1)N1C(=O)c2ccccc2C1=O : active
4) O=C(N/N=C\c1ccccc1)[C@H](Cc1ccccc1)N1C(=O)c2ccccc2C1=O : inactive
5) C[C@@H](C(=O)N/N=C\c1ccc(Cl)cc1)N1C(=O)c2ccccc2C1=O : active
6) CC[C@H](C)[C@@H](C(=O)N/N=C\c1ccc(Cl)c(Cl)c1)N1C(=O)c2ccccc2C1=O : inactive
7) C[C@@H](C(=O)N/N=C\c1ccc(Cl)c(Cl)c1)N1C(=O)c2ccccc2C1=O : active

----------
Tested on: Jurkat
Experiment: Induction of total cell death in human Jurkat cells containing GFP gene under control of TNF gene promoter at 10 uM incubated for 24 hrs by propidium iodide staining based assay
METRIC_NAME: Activity

1) C[C@@H](C(=O)N/N=C\c1ccccc1)N1C(=O)c2ccccc2C1=O : Non-toxic
2) CC[C@H](C)[C@@H](C(=O)N/N=C\c1ccc(Cl)c(Cl)c1)N1C(=O)c2ccccc2C1=O : Non-toxic
3) O=C1CCC(N2C(=O)c3ccccc3C2=O)C(=O)N1 (stereo not given) [THALIDOMIDE] : 2%
4) CC[C@H](C)[C@@H](C(=O)N/N=C\c1ccccc1)N1C(=O)c2ccccc2C1=O : Non-toxic
5) Nc1cccc2c1CN(C1CCC(=O)NC1=O)C2=O (stereo not given) [LENALIDOMIDE] : Non-toxic
